targetOfAssay: T1, human MAdCAM (human, UniProt Q13477 19-317, limits assumed)
T1 construct: also called huMAdCAM; human MAdCAM-1
T1 sequence (looked up): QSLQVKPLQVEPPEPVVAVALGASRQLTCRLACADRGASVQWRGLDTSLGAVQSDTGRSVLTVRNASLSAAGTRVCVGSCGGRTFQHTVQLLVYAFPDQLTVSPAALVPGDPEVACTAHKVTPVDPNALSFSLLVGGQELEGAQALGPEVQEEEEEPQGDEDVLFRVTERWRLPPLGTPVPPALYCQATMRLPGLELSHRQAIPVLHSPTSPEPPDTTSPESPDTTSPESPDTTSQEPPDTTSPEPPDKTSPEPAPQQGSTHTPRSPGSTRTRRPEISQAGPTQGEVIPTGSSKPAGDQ
testSummary: BLI (Octet), binder on anti-human Fc tips
Please respond with reported Kd for every item in the list.
Units required after the number.

Worked set:
binder="MIAB25 (antibody, V domains shown, tested with human Fc) VH: EVQLLESGGGLVQPGGSLRLSCAASGFIFDDYAMHWVRQAPGKGLEWVASITSSSAFIDYADSVKGRFTISRDNSKNTLYLQMNSLRAEDTAVYYCARERVDWFSYFDLWGQGTLVTVSS VL: EIVMTQSPATLSVSPGERATLSCRASQSVSNNLVWYQQKPGQAPRLLIYDASTRATGIPARFSGSGSGTEFTLTISSLQSEDFAVYYCQQYSHWPPTFGQGTKVEIK" readoutvalue="46.9 nM"
binder="MIAB123 (antibody, V domains shown, tested with human Fc) VH: EVQLLESGGGLVQPGGSLRLSCAASGFIFDDYAMHWVRQAPGKGLEWVASITSSSAFIDYADSVKGRFTISRDNSKNTLYLQMNSLRAEDTAVYYCARERVDWFSYFDLWGQGTLVTVSS VL: EIVMTQSPATLSVSPGERATLSCRASQSVSNNYLVWYQQKPGQAPRLLIYDASTRATGIPARFSGSGSGTEFTLTISSLQSEDFAVYYCQQYSHWPPTFGQGTKVEIK" readoutvalue="39.7 nM"
binder="MIAB146 (antibody, V domains shown, tested with human Fc; also called MIAB146-001) VH: EVQLLESGGGLVQPGGSLRLSCAASGFTFSDFWMHWVRQAPGKGLEWISYISGDSGYTNYADSVKGRFTISRDNSKNTLYLQMNSLRAEDTAVYYCARDRPYYYYMDVWGKGTTVTVSS VL: DIQMTQSPSSLSASVGDRVTITCRASQSVSSSLAWYQQKPGKAPKLLIYAASSLQSGVPSRFSGSGSGTDFTLTISSLQPEDFATYYCQQYKSYPVTFGQGTKVEIK" readoutvalue="43.8 nM"
binder="MIAB149 (antibody, V domains shown, tested with human Fc; also called MIAB149-001) VH: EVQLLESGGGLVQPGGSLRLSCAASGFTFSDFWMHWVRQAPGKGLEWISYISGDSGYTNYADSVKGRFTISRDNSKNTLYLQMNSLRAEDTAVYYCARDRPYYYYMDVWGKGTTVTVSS VL: DIQMTQSPSSLSASVGDRVTITCRASQSISSSLAWYQQKPGKAPKLLIYAASSLQSGVPSRFSGSGSGTDFTLTISSLQPEDFATYYCQQYKSYPVTFGQGTKVEIK" readoutvalue="68.8 nM"

In the following, a different binder is considered.
Quick check: Kd of MIAB1 (antibody, V domains shown, tested with human Fc) VH: EVQLLESGGGLVQPGGSLRLSCAASGFTFDDYAMHWVRQAPGKGLEWVASITSSSAFIDYADSVKGRFTISRDNSKNTLYLQMNSLRAEDTAVYYCAREPVDWNSYFDLWGQGTLVTVSS VL: EIVMTQSPATLSVSPGERATLSCRASQGISNSYLAWYQQKPGQAPRLLIYGASTRATGIPARFSGSGSGTEFTLTISSLQSEDFAVYYCQQYYTYPPTFGQGTKVEIK ?
38.4 nM

Data origin: patent US20240010722A1
